- System: HCC1143
- TEST: drug sensitivity score (DSS), CellTiter-Blue viability (DSS (AUC-based score)); higher = stronger viability inhibition; extreme values may be limits of the assay
- CONDITION: incubation time: 72 h
Kindly supply the reported drug sensitivity score values for the records listed here.

Assign drug sensitivity score to the following record: Nc1ccccc1NC(=O)c1ccc(CNc2nccc(-c3cccnc3)n2)cc1
6.77

Assign drug sensitivity score to the following record: Cc1ccc(Nc2nccc(N(C)c3ccc4c(C)n(C)nc4c3)n2)cc1S(N)(=O)=O
0

Assign drug sensitivity score to the following record: CCN(CC)CCNC(=O)c1c(C)[nH]c(/C=C2\C(=O)Nc3ccc(F)cc32)c1C
0

Assign drug sensitivity score to the following record: O=C1c2c(O)ccc(O)c2C(=O)c2c(NCCNCCO)ccc(NCCNCCO)c21
6.5

Assign drug sensitivity score to the following record: O=S(=O)(c1cccc2cnccc12)N1CCCNCC1
0

Assign drug sensitivity score to the following record: Nc1nc(=O)c2c([nH]1)NCC(CNc1ccc(C(=O)N[C@@H](CCC(=O)O)C(=O)O)cc1)N2C=O (mixture of isomers)
0
